- Test system: Staphylococcus aureus
- Assay protocol: Antibacterial activity against Staphylococcus aureus 3527 by CLSI based agar dilution method
- Format: functional
Mark Criterion met for MIC under 1 µg/mL, Criterion not met if at or over.

Request: For COc1ccc2nccc(CC[C@H]3OC[C@H](NC(=O)c4ccc5c(c4)OCCO5)CO3)c2c1 , is the recorded MIC below the cut-off of 1 µg/mL?
Response: Criterion met

Request: For COc1ccc2nccc(CC[C@H]3OC[C@H](NC(=O)[C@H]4CC[C@H](N)CC4)CO3)c2c1 , is the recorded MIC below the cut-off of 1 µg/mL?
Response: Criterion not met

Request: For COc1ccc2nccc(CC[C@H]3OC[C@H](NC(=O)C4COc5ccccc5O4)CO3)c2c1 (stereo partly drawn) , is the recorded MIC below the cut-off of 1 µg/mL?
Response: Criterion not met

Request: For COc1ccc2nccc(CC[C@H]3OC[C@H](NC(=O)C4CCCCC4)CO3)c2c1 , is the recorded MIC below the cut-off of 1 µg/mL?
Response: Criterion not met

Request: For COc1ccc2nccc(CC[C@H]3OC[C@H](NC(=O)[C@H]4CC[C@@H](O)CC4)CO3)c2c1 , is the recorded MIC below the cut-off of 1 µg/mL?
Response: Criterion not met

Request: For COc1ccc2nccc(CC[C@H]3OC[C@H](NC(=O)c4ccc(Cl)cc4)CO3)c2c1 , is the recorded MIC below the cut-off of 1 µg/mL?
Response: Criterion not met

Request: For COc1ccc2nccc(CC[C@H]3OC[C@H](NC(=O)C4Cc5ccccc5CO4)CO3)c2c1 (stereo partly drawn) , is the recorded MIC below the cut-off of 1 µg/mL?
Response: Criterion not met

Request: For COc1ccc2nccc(CC[C@H]3OC[C@H](NC(=O)C4CCN(C)CC4)CO3)c2c1 , is the recorded MIC below the cut-off of 1 µg/mL?
Response: Criterion not met

Request: For COc1ccc2nccc(CC[C@H]3OC[C@H](NC(=O)c4ccc(Cl)c(Cl)c4)CO3)c2c1 , is the recorded MIC below the cut-off of 1 µg/mL?
Response: Criterion met

Request: For COc1ccc2nccc(CC[C@H]3OC[C@H](NC(=O)c4ccc5c(n4)NC(=O)CO5)CO3)c2c1 , is the recorded MIC below the cut-off of 1 µg/mL?
Response: Criterion met

Request: For COc1ccc2nccc(CC[C@H]3OC[C@H](NC(=O)[C@H]4CC[C@@H](N)CC4)CO3)c2c1 , is the recorded MIC below the cut-off of 1 µg/mL?
Response: Criterion not met

Request: For COc1ccc2nccc(CC[C@H]3OC[C@H](NC(=O)c4cccnc4)CO3)c2c1 , is the recorded MIC below the cut-off of 1 µg/mL?
Response: Criterion not met

Request: For COc1ccc(C(=O)N[C@H]2CO[C@H](CCc3ccnc4ccc(OC)cc34)OC2)cc1 , is the recorded MIC below the cut-off of 1 µg/mL?
Response: Criterion not met

Request: For COc1ccc2nccc(CC[C@H]3OC[C@H](NC(=O)c4ccccn4)CO3)c2c1 , is the recorded MIC below the cut-off of 1 µg/mL?
Response: Criterion not met

Request: For COc1ccc2nccc(CC[C@H]3OC[C@H](NC(=O)c4ccc5c(c4)NC(=O)CO5)CO3)c2c1 , is the recorded MIC below the cut-off of 1 µg/mL?
Response: Criterion met

Request: For COc1ccc2nccc(CC[C@H]3OC[C@H](NC(=O)c4ccc(F)cc4)CO3)c2c1 , is the recorded MIC below the cut-off of 1 µg/mL?
Response: Criterion not met

Request: For COc1ccc2nccc(CC[C@H]3OC[C@H](NC(=O)[C@H]4CC[C@H](O)CC4)CO3)c2c1 , is the recorded MIC below the cut-off of 1 µg/mL?
Response: Criterion not met

====

- Test system: Staphylococcus aureus
- Assay protocol: Antibacterial activity against Staphylococcus aureus 3527 by CLSI based agar dilution method
- Assay type: functional
Property measured: MIC

Request: Provide measured MIC value, entry: COc1ccc2nccc(CC[C@H]3OC[C@H](NC(=O)[C@H]4CC[C@H](C)CC4)CO3)c2c1
Response: 8 µg/mL

Request: Provide measured MIC value, entry: COc1ccc2nccc(CC[C@H]3OC[C@H](NC(=O)c4ccc5c(c4)NC(=O)CS5)CO3)c2c1
Response: ≤ 0.125 µg/mL

Request: Provide measured MIC value, entry: COc1ccc2nccc(CC[C@H]3OC[C@H](NC(=O)c4ccccc4)CO3)c2c1
Response: 4 µg/mL

Request: Provide measured MIC value, entry: COc1ccc2nccc(CC[C@H]3OC[C@H](NC(=O)c4ccc(C(F)(F)F)cc4)CO3)c2c1
Response: ≤ 0.5 µg/mL

Request: Provide measured MIC value, entry: COc1ccc2nccc(CC[C@H]3OC[C@H](NC(=O)c4ccc(OC(F)(F)F)cc4)CO3)c2c1
Response: 2 µg/mL

Request: Provide measured MIC value, entry: COc1ccc2nccc(CC[C@H]3OC[C@H](NC(=O)c4ccc(C(C)(C)C)cc4)CO3)c2c1
Response: 1 µg/mL

Request: Provide measured MIC value, entry: COc1ccc2nccc(CC[C@H]3OC[C@H](NC(=O)CC4CCCCC4)CO3)c2c1
Response: > 64 µg/mL

Request: Provide measured MIC value, entry: COc1ccc2nccc(CC[C@H]3OC[C@H](NC(=O)c4ccc(C)cc4)CO3)c2c1
Response: 2 µg/mL

====

- Test system: Topoisomerase IV (Staphylococcus aureus, UniProt P0C1U9+P0C1S7)
- Sequence (P0C1U9 whole entry): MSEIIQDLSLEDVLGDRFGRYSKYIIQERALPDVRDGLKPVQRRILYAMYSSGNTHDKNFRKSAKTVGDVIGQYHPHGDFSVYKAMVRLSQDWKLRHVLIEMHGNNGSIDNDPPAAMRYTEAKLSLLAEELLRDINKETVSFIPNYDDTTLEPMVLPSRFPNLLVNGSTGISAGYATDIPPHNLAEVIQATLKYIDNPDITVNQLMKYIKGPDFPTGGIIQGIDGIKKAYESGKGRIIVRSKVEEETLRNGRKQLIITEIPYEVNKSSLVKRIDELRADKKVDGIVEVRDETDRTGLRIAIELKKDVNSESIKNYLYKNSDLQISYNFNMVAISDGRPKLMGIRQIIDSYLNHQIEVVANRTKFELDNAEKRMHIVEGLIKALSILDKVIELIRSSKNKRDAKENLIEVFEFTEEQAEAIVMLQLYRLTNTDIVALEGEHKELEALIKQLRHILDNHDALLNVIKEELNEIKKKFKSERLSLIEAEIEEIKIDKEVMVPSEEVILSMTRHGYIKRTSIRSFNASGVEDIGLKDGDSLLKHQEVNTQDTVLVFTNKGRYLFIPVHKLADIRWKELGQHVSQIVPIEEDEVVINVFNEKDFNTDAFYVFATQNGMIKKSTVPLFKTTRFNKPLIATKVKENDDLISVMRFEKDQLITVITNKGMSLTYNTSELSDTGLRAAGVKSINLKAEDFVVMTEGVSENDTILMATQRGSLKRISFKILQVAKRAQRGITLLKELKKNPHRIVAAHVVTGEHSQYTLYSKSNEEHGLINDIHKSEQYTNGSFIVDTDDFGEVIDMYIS
- Sequence (P0C1S7 whole entry): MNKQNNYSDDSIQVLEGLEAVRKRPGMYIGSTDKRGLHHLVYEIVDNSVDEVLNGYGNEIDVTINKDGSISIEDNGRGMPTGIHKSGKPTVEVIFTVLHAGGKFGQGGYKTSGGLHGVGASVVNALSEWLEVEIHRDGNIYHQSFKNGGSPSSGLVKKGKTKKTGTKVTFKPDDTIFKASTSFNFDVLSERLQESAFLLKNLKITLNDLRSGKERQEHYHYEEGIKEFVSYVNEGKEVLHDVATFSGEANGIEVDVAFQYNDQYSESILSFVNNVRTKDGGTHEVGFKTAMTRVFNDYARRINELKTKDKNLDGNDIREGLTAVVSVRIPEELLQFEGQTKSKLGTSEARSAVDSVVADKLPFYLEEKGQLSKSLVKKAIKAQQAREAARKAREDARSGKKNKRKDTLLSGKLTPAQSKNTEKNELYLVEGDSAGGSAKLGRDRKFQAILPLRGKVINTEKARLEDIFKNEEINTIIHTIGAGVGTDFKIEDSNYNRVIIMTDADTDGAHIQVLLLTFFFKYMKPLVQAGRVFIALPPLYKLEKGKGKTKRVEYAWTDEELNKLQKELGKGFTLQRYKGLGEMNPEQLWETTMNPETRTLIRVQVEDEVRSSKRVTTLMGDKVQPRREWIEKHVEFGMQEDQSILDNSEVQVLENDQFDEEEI
- Assay protocol: Inhibition of Staphylococcus aureus topoisomerase-4 assessed as reduction in decatenation of kinetoplast DNA agarose gel electrophoresis method
- Type: protein-complex assay
Property measured: IC50

[
  {
    "Mol smiles": "COc1ccc2nccc(CC[C@H]3OC[C@H](NC(=O)c4ccc(OC(F)(F)F)cc4)CO3)c2c1",
    "Test system": "Topoisomerase IV (Staphylococcus aureus, UniProt P0C1U9+P0C1S7)",
    "Property measured": "IC50",
    "Recorded value": "Not Active"
  },
  {
    "Mol smiles": "COc1ccc2nccc(CC[C@H]3OC[C@H](NC(=O)c4cccc(Cl)c4)CO3)c2c1",
    "Test system": "Topoisomerase IV (Staphylococcus aureus, UniProt P0C1U9+P0C1S7)",
    "Property measured": "IC50",
    "Recorded value": "Not Active"
  },
  {
    "Mol smiles": "COc1ccc2nccc(CC[C@H]3OC[C@H](NC(=O)c4ccc(C)cc4)CO3)c2c1",
    "Test system": "Topoisomerase IV (Staphylococcus aureus, UniProt P0C1U9+P0C1S7)",
    "Property measured": "IC50",
    "Recorded value": "Not Active"
  },
  {
    "Mol smiles": "COc1ccc2nccc(CC[C@H]3OC[C@H](NC(=O)c4ccc(Cl)cc4)CO3)c2c1",
    "Test system": "Topoisomerase IV (Staphylococcus aureus, UniProt P0C1U9+P0C1S7)",
    "Property measured": "IC50",
    "Recorded value": "Not Active"
  }
]

====

- Test system: DNA gyrase (Staphylococcus aureus) (UniProt P0A0K8+P20831)
- Sequence (P0A0K8 2-644 limits assumed): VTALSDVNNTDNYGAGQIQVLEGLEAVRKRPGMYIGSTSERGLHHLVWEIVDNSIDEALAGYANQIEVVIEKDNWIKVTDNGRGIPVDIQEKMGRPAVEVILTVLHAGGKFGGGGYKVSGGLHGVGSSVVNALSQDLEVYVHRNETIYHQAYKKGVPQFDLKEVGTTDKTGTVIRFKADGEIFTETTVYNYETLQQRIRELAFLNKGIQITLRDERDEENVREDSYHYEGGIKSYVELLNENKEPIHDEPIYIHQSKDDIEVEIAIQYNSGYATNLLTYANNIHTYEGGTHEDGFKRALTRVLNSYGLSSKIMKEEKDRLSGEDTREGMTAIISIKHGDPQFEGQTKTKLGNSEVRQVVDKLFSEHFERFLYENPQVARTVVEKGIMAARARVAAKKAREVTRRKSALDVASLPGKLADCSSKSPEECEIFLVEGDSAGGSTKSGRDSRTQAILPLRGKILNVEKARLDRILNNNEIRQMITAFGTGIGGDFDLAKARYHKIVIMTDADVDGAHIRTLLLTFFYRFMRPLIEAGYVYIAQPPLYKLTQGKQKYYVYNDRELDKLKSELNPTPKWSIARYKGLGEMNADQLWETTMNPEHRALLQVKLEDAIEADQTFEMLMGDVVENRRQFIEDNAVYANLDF
- Sequence (P20831 whole entry partner): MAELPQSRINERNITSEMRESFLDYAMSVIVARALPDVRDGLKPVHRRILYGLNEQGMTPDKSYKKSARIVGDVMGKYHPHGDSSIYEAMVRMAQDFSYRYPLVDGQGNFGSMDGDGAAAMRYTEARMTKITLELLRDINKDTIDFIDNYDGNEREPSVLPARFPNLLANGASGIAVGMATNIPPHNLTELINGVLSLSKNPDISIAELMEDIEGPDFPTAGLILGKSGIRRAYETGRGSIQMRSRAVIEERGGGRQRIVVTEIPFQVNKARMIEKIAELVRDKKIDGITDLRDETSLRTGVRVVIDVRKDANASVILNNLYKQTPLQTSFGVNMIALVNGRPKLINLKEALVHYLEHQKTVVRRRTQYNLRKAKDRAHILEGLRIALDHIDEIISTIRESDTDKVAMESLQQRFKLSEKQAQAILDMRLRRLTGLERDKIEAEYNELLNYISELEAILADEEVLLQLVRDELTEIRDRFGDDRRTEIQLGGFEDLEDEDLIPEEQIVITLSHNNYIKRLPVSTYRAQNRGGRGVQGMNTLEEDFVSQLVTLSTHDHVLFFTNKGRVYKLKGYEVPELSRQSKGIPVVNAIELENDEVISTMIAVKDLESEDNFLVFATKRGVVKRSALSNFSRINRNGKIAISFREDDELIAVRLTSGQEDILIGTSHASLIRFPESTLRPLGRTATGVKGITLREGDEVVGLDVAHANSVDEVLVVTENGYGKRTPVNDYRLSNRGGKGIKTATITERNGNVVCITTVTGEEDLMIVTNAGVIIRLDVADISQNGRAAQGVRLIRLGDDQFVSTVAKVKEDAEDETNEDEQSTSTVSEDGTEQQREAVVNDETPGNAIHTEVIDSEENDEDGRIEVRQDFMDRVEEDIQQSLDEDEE
- Assay protocol: Inhibition of Staphylococcus aureus DNA gyrase assessed as single-strand break at 20 uM using relaxed pBR322 as substrate by ethidium bromide-based gel electrophoresis
- Assay type: protein-complex assay
Activity calls are given as the source filed them. The rule behind the calls is not given here.
Property measured: inhibition

[
  {
    "Mol smiles": "COc1ccc2nccc(CC[C@H]3OC[C@H](NC(=O)c4ccc(C(C)(C)C)cc4)CO3)c2c1",
    "Recorded value": "Active"
  },
  {
    "Mol smiles": "COc1ccc2nccc(CC[C@H]3OC[C@H](NC(=O)c4ccc(C)cc4)CO3)c2c1",
    "Recorded value": "Active"
  },
  {
    "Mol smiles": "COc1ccc2nccc(CC[C@H]3OC[C@H](NC(=O)c4ccc5c(c4)OCCO5)CO3)c2c1",
    "Recorded value": "Active"
  }
]

====

Please respond with reported pIC50 for every item in the list.
- Test system: DNA gyrase (Staphylococcus aureus, UniProt P0A0K8+P20831)
- Assay protocol: Inhibition of Staphylococcus aureus DNA gyrase using relaxed pBR322 as substrate by gel electrophoresis
Conceptually, pIC50 converts a concentration in mol/L into minus its log10.

Request: Find the measured pIC50 of COc1ccc2nccc(CC[C@H]3OC[C@H](NC(=O)c4ccc5c(n4)NC(=O)CO5)CO3)c2c1 with DNA gyrase (Staphylococcus aureus, UniProt P0A0K8+P20831) as test system.
Response: 7.40

Request: Find the measured pIC50 of COc1ccc2nccc(CC[C@H]3OC[C@H](NC(=O)c4ccc5c(c4)OCCO5)CO3)c2c1 with DNA gyrase (Staphylococcus aureus, UniProt P0A0K8+P20831) as test system.
Response: 5.43

Request: Find the measured pIC50 of COc1ccc2nccc(CC[C@H]3OC[C@H](NC(=O)c4ccc(Cl)c(Cl)c4)CO3)c2c1 with DNA gyrase (Staphylococcus aureus, UniProt P0A0K8+P20831) as test system.
Response: 6.23

Request: Find the measured pIC50 of COc1ccc2nccc(CC[C@H]3OC[C@H](NC(=O)c4ccc(C(F)(F)F)cc4)CO3)c2c1 with DNA gyrase (Staphylococcus aureus, UniProt P0A0K8+P20831) as test system.
Response: 5.96

Request: Find the measured pIC50 of COc1ccc2nccc(CC[C@H]3OC[C@H](NC(=O)c4ccc5c(c4)NC(=O)CO5)CO3)c2c1 with DNA gyrase (Staphylococcus aureus, UniProt P0A0K8+P20831) as test system.
Response: 7.22

Request: Find the measured pIC50 of COc1ccc2nccc(CC[C@H]3OC[C@H](NC(=O)c4ccc(C(C)(C)C)cc4)CO3)c2c1 with DNA gyrase (Staphylococcus aureus, UniProt P0A0K8+P20831) as test system.
Response: 5.89

Request: Find the measured pIC50 of COc1ccc(C(=O)N[C@H]2CO[C@H](CCc3ccnc4ccc(OC)cc34)OC2)cc1 with DNA gyrase (Staphylococcus aureus, UniProt P0A0K8+P20831) as test system.
Response: 5.41

Request: Find the measured pIC50 of COc1ccc2nccc(CC[C@H]3OC[C@H](NC(=O)c4ccc(Cl)cc4)CO3)c2c1 with DNA gyrase (Staphylococcus aureus, UniProt P0A0K8+P20831) as test system.
Response: 6.21

Request: Find the measured pIC50 of COc1ccc2nccc(CC[C@H]3OC[C@H](NC(=O)c4ccc5c(n4)NC(=O)CS5)CO3)c2c1 with DNA gyrase (Staphylococcus aureus, UniProt P0A0K8+P20831) as test system.
Response: 6.77

Request: Find the measured pIC50 of COc1ccc2nccc(CC[C@H]3OC[C@H](NC(=O)c4cccc(Cl)c4)CO3)c2c1 with DNA gyrase (Staphylococcus aureus, UniProt P0A0K8+P20831) as test system.
Response: 6.49

Request: Find the measured pIC50 of COc1ccc2nccc(CC[C@H]3OC[C@H](NC(=O)c4ccc(OC(F)(F)F)cc4)CO3)c2c1 with DNA gyrase (Staphylococcus aureus, UniProt P0A0K8+P20831) as test system.
Response: 5.85

Request: Find the measured pIC50 of COc1ccc2nccc(CC[C@H]3OC[C@H](NC(=O)c4ccc(C)cc4)CO3)c2c1 with DNA gyrase (Staphylococcus aureus, UniProt P0A0K8+P20831) as test system.
Response: 6.39

Request: Find the measured pIC50 of COc1ccc2nccc(CC[C@H]3OC[C@H](NC(=O)c4ccc5c(c4)NC(=O)CS5)CO3)c2c1 with DNA gyrase (Staphylococcus aureus, UniProt P0A0K8+P20831) as test system.
Response: 6.89
